Listed compounds paired with reported AC50
system: S. cerevisiae Burl-1 ts mutant growth, BacTiter-Glo, 38.5C 24 h; experiment: restored growth of temperature-sensitive Burl-1 yeast – whole organism, S. cerevisiae, Burl-1 ts mutant, luminescence, counter-screen for SUMOylation pathway inhibitor project, dose response (AID 463199)
Calls of active or inactive are those of the source.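 How the source made its calls: active means AC50, the dose giving half-maximal effect, exceeds a fixed cutoff for a compound that rescues yeast growth under heat; inactive means the rest, inconclusive results apart.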

Reference set, count: 6
QUERY: What does the data say about its AC50? Entry: COc1ccc(CN2C(=O)C(=O)N(CC(N)=O)C2=O)cc1
RESULT: > 42 µM (inactive)

QUERY: // same read-out, input: COCCn1c(=NC(=O)c2ccc(S(=O)(=O)N3CCOCC3)cc2)sc2cc(S(N)(=O)=O)ccc21
RESULT: > 42 µM (inactive)

QUERY: Again, but for CCOC(=O)c1c(C)[nH]c(C(=O)COC(=O)c2ccncc2)c1C
RESULT: > 42 µM (inactive)

QUERY: Likewise for CC(C)(C)c1ccc(C(=O)NCCC(=O)N2CCN(c3ncccn3)CC2)cc1 ?
RESULT: > 42 µM (inactive)

QUERY: Try this compound next: C=C(C)Cn1c(N)cc(=O)nc1SCC(=O)Nc1cccc(C(F)(F)F)c1
RESULT: > 42 µM (inactive)

QUERY: CC(C)CCOCc1nc2sc3c(c2c(=O)[nH]1)CCC(C)C3 (configuration not stated) , same question.
RESULT: > 42 µM (inactive)

More entries:
QUERY: # input compound: O=C(Nc1ccccc1F)C1CCN(C(=O)Cc2ccccc2)CC1 ; wanted: its AC50
RESULT: > 42 µM (inactive)

QUERY: Similarly, COc1ccccc1N1CCN(C(=O)c2ccc(N3CCCCS3(=O)=O)cc2)CC1 ?
RESULT: > 42 µM (inactive)

QUERY: What do you have for O=C1C2CCCCN2C(=O)N1CCCCN1CCN(c2ccccc2Oc2ccccc2)CC1 (configuration not stated) ?
RESULT: > 42 µM (inactive)

QUERY: Same question, COc1ccc(CCC(=O)NNC(=S)Nc2cccc(C(C)=O)c2)cc1 this time
RESULT: > 42 µM (inactive)

QUERY: Next compound up: CN(C)C(/C=C/Nc1cccc(Br)c1)=C(C#N)C#N
RESULT: > 42 µM (inactive)

QUERY: Check CN(Cc1cccnc1)Cc1cn[nH]c1-c1ccc(-c2ccccc2)cc1 too.
RESULT: > 42 µM (inactive)

QUERY: Continue with Cc1cccc2nc3ccccc3cc12
RESULT: > 42 µM (inactive)

QUERY: Now consider CCOC(=O)C1=Nc2ccccc2C1=[N+]=[N-] and answer again.
RESULT: > 42 µM (inactive)

QUERY: Then what about the compound CCOC(=O)c1c(C)[nH]c2c1cc(O)c1ccccc12 ?
RESULT: > 42 µM (inactive)

QUERY: Another compound to look at: COc1ccc(-c2csc(NC(=O)CCS(=O)(=O)c3ccccc3)n2)c(OC)c1
RESULT: > 42 µM (inactive)

QUERY: Another: Nn1c(SCc2cc([N+](=O)[O-])cc3c2OCOC3)nnc1-c1ccccn1
RESULT: > 42 µM (inactive)

* * *

test system: S. cerevisiae Burl-1 ts mutant growth, BacTiter-Glo, 38.5C 24 h; assay: restored growth of temperature-sensitive Burl-1 yeast – whole organism, S. cerevisiae, Burl-1 ts mutant, luminescence, counter-screen for SUMOylation pathway inhibitor project, dose response (AID 463199)
The source made the active and inactive calls.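 Rule for the calls: active = AC50, the dose giving half-maximal effect, exceeds a fixed cutoff for a compound that rescues yeast growth under heat; inactive = the rest, inconclusive results apart.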
Let's look at some compounds and their measured AC50.

Check out these entries, answers already filled in.
QUERY: Name the recorded AC50 for O=C(Nc1ccccc1N1CCN(c2ccccc2)CC1)c1cccc(F)c1 .
RESULT: > 42 µM (inactive)

QUERY: Repeat for the following compound: CN(CC(=O)Nc1sccc1C#N)Cc1ccccc1
RESULT: > 42 µM (inactive)

QUERY: Moving on to the next compound: Cc1ccccc1-c1nc2ccc(Cl)cc2c(=O)n1O
RESULT: > 42 µM (inactive)

QUERY: And for CC(=O)NC1CCCN(O)C(=O)/C=C(\C)CCOC(=O)C(NC(C)=O)CCCN(O)C(=O)/C=C(\C)CCOC(=O)C(NC(C)=O)CCCN(O)C(=O)/C=C(\C)CCOC1=O (stereo unspecified) ?
RESULT: > 42 µM (inactive)

QUERY: Try this compound too: Cc1cc(OCC(=O)NCC2CCC(C(=O)O)CC2)c2c(C)c(C)c(=O)oc2c1 (stereo unspecified)
RESULT: > 42 µM (inactive)

QUERY: Repeat with COc1ccc(C(=O)N/C(=C\c2cc(OC)c(OC)cc2[N+](=O)[O-])C(=O)NCCO)cc1
RESULT: > 42 µM (inactive)

QUERY: Also, CN1C(=O)C(O)(CC(=O)c2ccccc2O)c2cc(Br)ccc21 (stereo unspecified) please.
RESULT: > 42 µM (inactive)

QUERY: Cc1ccccc1NC(=O)c1ccccc1NC(=O)c1ccco1 ?
RESULT: > 42 µM (inactive)

QUERY: Same again, this time with CCc1nn(C)c(N)c1C
RESULT: > 42 µM (inactive)

QUERY: Quick one: Cc1cc2ncc(C(=O)N=CN(C)C)cn2n1
RESULT: > 42 µM (inactive)

More entries:
QUERY: Reported AC50, compound CCOC(=O)c1oc2c(c1C)C(=O)CCC2 : ____
RESULT: > 42 µM (inactive)

* * *

tested on: S. cerevisiae Burl-1 ts mutant growth, BacTiter-Glo, 38.5C 24 h; assay: restored growth of temperature-sensitive Burl-1 yeast – whole organism, S. cerevisiae, Burl-1 ts mutant, luminescence, counter-screen for SUMOylation pathway inhibitor project, dose response (AID 463199)
Activity calls are given as the source filed them.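 The calls were made as follows: active = AC50, the dose giving half-maximal effect, exceeds a fixed cutoff for a compound that rescues yeast growth under heat; inactive = the rest, inconclusive results apart.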
The compounds listed here are annotated with their AC50.

// known answers, use as guide
QUERY: // returns reported AC50 for input O=C(OCC(=O)N1CCN(Cc2ccccc2)CC1)c1ccc(Cl)cc1
RESULT: > 42 µM (inactive)

QUERY: Same question, c1ccc2[nH]c(CSc3nccs3)nc2c1 this time
RESULT: > 42 µM (inactive)

QUERY: What would you report for COc1cc(O)oc1C=Nc1ccc(C(=O)O)cc1 ?
RESULT: > 42 µM (inactive)

QUERY: # iterate: O=C1C2CC=C(Cl)CC2C(=O)N1c1ncn[nH]1 (stereo unspecified)
RESULT: > 42 µM (inactive)

QUERY: What about this compound? c1ccc(-c2nc(NCc3ccco3)c3ccccc3n2)nc1
RESULT: > 42 µM (inactive)

---
QUERY: Request the reported AC50 associated with c1ccc(CNc2ccc3ccccc3n2)nc1
RESULT: > 42 µM (inactive)

QUERY: Same lookup for O=C(NC(=S)Nc1ccccc1N1CCCC1)c1ccc([N+](=O)[O-])cc1 , please.
RESULT: > 42 µM (inactive)

QUERY: // next record COc1ccccc1N1CCN(C(=O)c2sc3ncnc(N4CCN(c5ccccn5)CC4)c3c2C)CC1
RESULT: > 42 µM (inactive)

QUERY: Then COc1ccc(Nc2oc(-c3cccs3)nc2C#N)cc1 ?
RESULT: > 42 µM (inactive)

QUERY: Try this compound too: O=C1CSC(c2ccc(F)c(F)c2)N1c1ccccc1F (stereo unspecified)
RESULT: > 42 µM (inactive)

QUERY: Also O=C(O)CN(c1ccccn1)S(=O)(=O)c1ccc(Cl)cc1 ?
RESULT: > 42 µM (inactive)

QUERY: Next up: C=CCn1c(-c2ccc(OC)cc2)nc2ccccc21
RESULT: > 42 µM (inactive)

* * *

tested on: S. cerevisiae Burl-1 ts mutant growth, BacTiter-Glo, 38.5C 24 h; assay: restored growth of temperature-sensitive Burl-1 yeast – whole organism, S. cerevisiae, Burl-1 ts mutant, luminescence, counter-screen for SUMOylation pathway inhibitor project, dose response (AID 463199)
The source made the active and inactive calls.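 The calls were made as follows: active = AC50, the dose giving half-maximal effect, exceeds a fixed cutoff for a compound that rescues yeast growth under heat; inactive = the rest, inconclusive results apart.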
Choose one outcome from this list and give only that: True = active, False = inactive

Use the examples below as a reference point.
QUERY: Can you look up the reported call for COc1cccc(CN(C)C(=O)C2CCC(=O)N(Cc3cccc(F)c3)C2)c1 (stereo not given) for me?
RESULT: False

QUERY: Ok, now CCOc1ccccc1CN1CCN(Cc2ccon2)CC1CCO (stereo not given)
RESULT: False

Others:
QUERY: Hi, sorry to bother you, what did the test record for CCN(C(=O)COC(=O)c1cc([N+](=O)[O-])ccc1N1CCOCC1)C1CCCCC1 ?
RESULT: False

QUERY: Now the same for O=C(CN1C(=O)NC2(CCCC2)C1=O)Nc1nc2ccccc2[nH]1
RESULT: False

QUERY: Param item: Cc1cc(/C=C2\C(=O)NC(=O)N(c3ccccc3F)C2=O)c(C)n1-c1cc(C(=O)O)cc(C(=O)O)c1
RESULT: False

QUERY: Moving on to COc1cc(CN2CCC(Oc3cc(C(=O)NC4CC4)ccc3OC)CC2)cc(OC)c1
RESULT: True

QUERY: Moving on to CC(C)(C)c1ccc(CN(Cc2ccccc2)C(c2ccccn2)c2nnnn2C(C)(C)C)cc1 (stereo not given)
RESULT: False

QUERY: Do the same for COc1ccc(OC)c(NC(=O)CNC(=O)Cn2ccc3ccccc3c2=O)c1 please
RESULT: False

QUERY: Another compound to check: CCCC(=O)Nc1ccc(Sc2ccc([N+](=O)[O-])cc2)cc1
RESULT: False

QUERY: Same lookup for Cc1cc(C(=O)NN)n[nH]1 , please.
RESULT: False
